B1: TRIM9 (parent)
chain: CVQCKMPVCYQCLEEGKHSSHEVK

Variants of: B1
Test: protein stability index of a GFP-peptide fusion (GPS, HEK-293T) (PSI 1-6); higher = more stable;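 further: lentivirally expressed fusions sorted by FACS into six bins by GFP to DsRed ratio, PSI derived from sequencing read proportions per bin multiplied by bin number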
Details: c terminus: a fixed tail appended
Returns Fulfilled if the recorded protein stability index is greater than or equal to 4, and Not fulfilled otherwise.

Worked set:
- Sequence string: "CVQCKMPVTYQCLEEGKHSSHEVK [C9T]"
  Category label: "Fulfilled"
- Sequence string: "CVQCKMPVCYQCLEGGKHSSHEVK [E15G]"
  Category label: "Fulfilled"
- Sequence string: "CVQCKMPVCYQCLEEGKHSLHEVK [S20L]"
  Category label: "Fulfilled"
- Sequence string: "CVQCKMHVCYQCLEEGKHSSHEVK [P7H]"
  Category label: "Not fulfilled"

In: Is protein stability index for CVQCKMPVCYQCLSEGKHSSHEVK [E14S] at or above 4?
Out: Not fulfilled

In: Is protein stability index for CMQCKMPVCYQCLEEGKHSSHEVK [V2M] at or above 4?
Out: Not fulfilled

In: Is protein stability index for CVQCKMPVCYQCLEEGKDSSHEVK [H18D] at or above 4?
Out: Fulfilled

In: Is protein stability index for CVQCKMPVCYQCLEEQKHSSHEVK [G16Q] at or above 4?
Out: Not fulfilled

In: Is protein stability index for CVQCKMPVCYQCLEEGKHSSWEVK [H21W] at or above 4?
Out: Not fulfilled
